Measured pKi, listed per entry.
SYSTEM: Cathepsin K (Homo sapiens)
Sequence (P43235 whole entry): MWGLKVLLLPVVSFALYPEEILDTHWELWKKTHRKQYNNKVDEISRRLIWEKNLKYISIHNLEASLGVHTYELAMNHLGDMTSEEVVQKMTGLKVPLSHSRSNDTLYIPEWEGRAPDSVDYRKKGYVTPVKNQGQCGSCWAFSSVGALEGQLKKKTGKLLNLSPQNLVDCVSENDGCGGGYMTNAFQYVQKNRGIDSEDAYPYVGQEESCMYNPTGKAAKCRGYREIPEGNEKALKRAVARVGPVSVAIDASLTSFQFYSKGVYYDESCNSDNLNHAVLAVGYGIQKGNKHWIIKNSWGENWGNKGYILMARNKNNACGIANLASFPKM
EXPERIMENT_DESCRIPTION: Inhibition of recombinant cathepsin-K (unknown origin) using Z-Phe-Arg-AMC as substrate by fluorescence assay
Peptide text beside a SMILES is read from it. * marks the point of attachment. Cbz = O=C(OCc1ccccc1)*
Would you please state pKi, meaning minus log10 of the concentration in mol/L, as a bare number?

Below, each entry is followed by its recorded pKi result.
[[record]]
compound = "NCCCC[C@H](NC(=O)[C@H](Cc1ccccc1)NC(=O)OCc1ccccc1)C(N)=O"
system = "Cathepsin K (Homo sapiens)"
readout_value = 4.33

[[record]]
compound = "NCCCC[C@H](NC(=O)[C@H](Cc1ccccc1)NC(=O)[C@H](CCCCN)NC(=O)OCc1ccccc1)C(N)=O (Cbz-Lys-Phe-Lys-NH2)"
system = "Cathepsin K (Homo sapiens)"
readout_value = 3.55

[[record]]
compound = "CC(C)C[C@H](NC(=O)OCc1ccccc1)C(=O)N[C@@H](Cc1ccccc1)C(=O)N[C@@H](CCCCN)C(N)=O (Cbz-Leu-Phe-Lys-NH2)"
system = "Cathepsin K (Homo sapiens)"
readout_value = 3.67

[[record]]
compound = "NCCCC[C@H](NC(=O)[C@H](Cc1ccccc1)NC(=O)[C@H](Cc1c[nH]c2ccccc12)NC(=O)OCc1ccccc1)C(N)=O (Cbz-Trp-Phe-Lys-NH2)"
system = "Cathepsin K (Homo sapiens)"
readout_value = 3.19

[[record]]
compound = "NCCCC[C@H](NC(=O)[C@H](Cc1ccc(-c2cccs2)cc1)NC(=O)OCc1ccccc1)C(N)=O"
system = "Cathepsin K (Homo sapiens)"
readout_value = 4.62


Please examine the following record next.
Query: Which pKi value belongs to N=C(N)NCCC[C@H](NC(=O)OCc1ccccc1)C(=O)N[C@@H](Cc1ccccc1)C(=O)N[C@@H](CCCCN)C(N)=O (Cbz-Arg-Phe-Lys-NH2) ?
Reply: 3.83

Attribution: ChEMBL document CHEMBL2380300
